// data source = patent US20230219904A1

# Test system: Amaranthus retoflexus (AMARE)
# method: Pre-emergence herbicidal glasshouse test (Table B1)
# Type: in vivo
# experimental_context: applied at 125 g/ha, evaluated after 13 days
Overview of recorded PRE Application AMARE, percentage damage on five-point scale for various molecules

In the examples that follow, each entry is paired with its recorded PRE Application AMARE, percentage damage on five-point scale.
molecule | result_value
Cn1nnnc1NC(=O)c1ccc(OC(F)F)c(NC(=O)c2ncc(F)cc2F)c1Cl [Compound 1.089] | 5 (5=80-100%)
CCOCC(=O)Nc1c(OC(F)(F)F)ccc(C(=O)Nc2nnnn2C)c1Cl [Compound 1.066] | 5 (5=80-100%)
Cn1nnnc1NC(=O)c1ccc(OC(F)F)c(NC(=O)c2ccc(F)cc2)c1Cl [Compound 1.099] | 5 (5=80-100%)
Cn1nnnc1NC(=O)c1ccc(OC(F)F)c(NC(=O)c2ccccn2)c1Cl [Compound 1.108] | 5 (5=80-100%)
Cc1c(C(=O)Nc2c(OC(F)F)ccc(C(=O)Nc3nnnn3C)c2Cl)nn(C)c1C [Compound 1.098] | 3 (3=40-59%)
Cn1nnnc1NC(=O)c1ccc(OC(F)(F)F)c(NC(=O)C(C)(F)F)c1Cl [Compound 1.061] | 5 (5=80-100%)
CCn1nnnc1NC(=O)c1ccc(OC(F)(F)F)c(NC(=O)COC(C)C)c1Cl [Compound 1.072] | 5 (5=80-100%)
COc1ccc(C(=O)Nc2c(OC(F)F)ccc(C(=O)Nc3nnnn3C)c2Cl)cc1 [Compound 1.101] | 4 (4=60-79%)
CC(C)C(=O)Nc1c(OC(F)F)ccc(C(=O)Nc2nnnn2C)c1Cl [Compound 1.020] | 5 (5=80-100%)
CCn1nnnc1NC(=O)c1ccc(OC(F)(F)F)c(NC(=O)C2(C)CC2)c1Cl [Compound 1.075] | 5 (5=80-100%)

Report measured PRE Application AMARE, percentage damage on five-point scale; entry is CCOC(C)C(=O)Nc1c(OC(F)(F)F)ccc(C(=O)Nc2nnnn2CC)c1Cl (stereo not shown) [Compound 1.073]
5 (5=80-100%)

Report measured PRE Application AMARE, percentage damage on five-point scale; entry is CCC(=O)N(CC)c1c(OC(F)F)ccc(C(=O)Nc2nnnn2C)c1Cl [Compound 1.021]
3 (3=40-59%)

Report measured PRE Application AMARE, percentage damage on five-point scale; entry is Cc1nnc(NC(=O)c2ccc(OC(F)(F)F)c(NC(=O)C3CC3)c2Cl)o1 [Compound 1.115]
4 (4=60-79%)

---

Overview of recorded PRE Application IPOHE, percentage damage on five-point scale for various compounds
# Test system: Ipomoea hederacea (IPOHE)
# method: Pre-emergence herbicidal glasshouse test (Table B1)
# Type: in vivo
# experimental_context: applied at 125 g/ha, evaluated after 13 days

In the examples that follow, each entry is paired with its recorded PRE Application IPOHE, percentage damage on five-point scale.
compound | result_value
CCC(=O)N(C)c1c(OC(F)F)ccc(C(=O)Nc2nnnn2CC)c1Cl | 5 (5=80-100%)
CC(C)C(=O)Nc1c(OC(F)F)ccc(C(=O)Nc2nnnn2C)c1Cl | 5 (5=80-100%)
CCOC(C)C(=O)Nc1c(OC(F)(F)F)ccc(C(=O)Nc2nnnn2C)c1Cl (centres unmarked) | 5 (5=80-100%)
Cc1c(C(F)F)c(C(=O)Nc2c(OC(F)F)ccc(C(=O)Nc3nnnn3C)c2Cl)nn1C | 4 (4=60-79%)

Report measured PRE Application IPOHE, percentage damage on five-point scale; entry is `Cn1nnnc1NC(=O)c1ccc(OC(F)(F)F)c(NC(=O)c2ccccn2)c1Cl`
4 (4=60-79%)

Report measured PRE Application IPOHE, percentage damage on five-point scale; entry is `Cn1cc(C(=O)Nc2c(OC(F)(F)F)ccc(C(=O)Nc3nnnn3C)c2Cl)c(C(F)F)n1`
4 (4=60-79%)

Report measured PRE Application IPOHE, percentage damage on five-point scale; entry is `CC(=O)Nc1c(OC(F)(F)C(F)F)ccc(C(=O)Nc2nnnn2C)c1Cl`
3 (3=40-59%)

Report measured PRE Application IPOHE, percentage damage on five-point scale; entry is `Cn1nnnc1NC(=O)c1ccc(OC(F)F)c(NC(=O)c2ncccc2Cl)c1Cl`
3 (3=40-59%)
